test.method.notes: small-molecule microarray binders of probe aNog, primary screen, biochemical, biotinylated probe, 635/667 nm fluorescence (AID 1115);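 further: probe is biotinylated aNog protein used at 0.15 µg/mL for 1 h at 4 C; z-score combines 667 nm fluorescence of each spot with its signal to noise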
particulars: higher = more signal
Recorded composite z-score values for a group of compounds are listed next.

>  <entry.smiles>
CCOC(=O)C[C@H]1[C@H](OC(=O)Cc2ccc3c(c2)OCO3)[C@@H](NC(=O)c2ccc3ccccc3c2)c2cc(OCCCO)ccc2N1C(=O)c1ccccc1

>  <composite z-score>
-0.417

$$$$
>  <entry.smiles>
COc1cc2c(cc1OC)CN(C(=O)[C@@H]1[C@H]3C(=O)O[C@H](c4ccccc4)[C@H](c4ccccc4)N3[C@H](c3ccc(O)cc3)[C@@]13C(=O)Nc1ccc(C#CC4(O)CCCCCC4)cc13)CC2

>  <composite z-score>
2.1

$$$$
>  <entry.smiles>
C=CCOC(=O)[C@H]1[C@@H]2C(=O)O[C@@H](c3ccccc3)[C@@H](c3ccccc3)N2[C@@H](c2ccc(OCCOC(=O)[C@@H]3C[C@@H]4C(=O)N[C@@H](CCCCN(C)C)C(=O)N4[C@@H]3c3ccc(O)cc3)cc2)[C@]12C(=O)Nc1ccc(I)cc12

>  <composite z-score>
1.18

$$$$
>  <entry.smiles>
COCCOC(=O)N1C(=O)[C@@]2(c3ccccc31)[C@H](c1ccc(O)cc1)N1[C@H](c3ccccc3)[C@H](c3ccccc3)OC(=O)[C@H]1[C@@H]2C(=O)NC[C@H](O)c1ccccc1

>  <composite z-score>
0.35

$$$$
>  <entry.smiles>
C=CCNC(=O)[C@H]1[C@@H]2C(=O)O[C@@H](c3ccccc3)[C@@H](c3ccccc3)N2[C@@H](c2ccc(O)cc2)[C@]12C(=O)N(C(=O)OCCOC)c1ccc(C#CCNC(N)=O)cc12

>  <composite z-score>
0.0989

$$$$

====

Quick reference: z-score of the listed items.
test.method.notes: PSAC antagonists in infected red cells, primary screen, cell-based, P. falciparum Indochina, OD700, 18 h (AID 1157)
particulars: P. falciparum Indochina infected erythrocytes, osmotic lysis OD700, 18 h; higher = more signal, called active from +8 up or from −8 down
Calls of active or inactive are those of the source.

>  <compound>
CN(C)CCCNC(=O)[C@@]1(c2ccc([N+](=O)[O-])cc2)CC(=O)N(C2CCCCC2)[C@@H]1c1ccc(CO)cc1I

>  <z-score>
0.037 (inactive)

$$$$
>  <compound>
COc1ccc(C(O)C2C=CC3C(=O)NC(=O)C3N2Nc2ccccn2)c2ccccc12 (stereo unspecified)

>  <z-score>
0.977 (inactive)

$$$$
>  <compound>
O=C1O[C@H](c2ccccc2)[C@H](c2ccccc2)N2[C@H]1[C@@H](C(=O)Nc1nc3ccccc3s1)[C@]1(C(=O)Nc3ccc(C#CC4(O)CCCCCC4)cc31)[C@H]2c1ccc(OCCO)cc1

>  <z-score>
1.67 (inactive)

$$$$
>  <compound>
C=CCNC(=O)[C@@H]1[C@H]2C(=O)O[C@H](c3ccccc3)[C@H](c3ccccc3)N2[C@H](c2ccccc2OCCO)[C@@]12C(=O)N(C(=O)OCCOC)c1ccc(C#CCNC(N)=O)cc12

>  <z-score>
0.466 (inactive)

$$$$
>  <compound>
CCOC(=O)C[C@H]1[C@H](OC(=O)c2cc3ccccc3oc2=O)[C@@H](NC(=O)C2CCCCC2)c2cc(OCCCO)ccc2N1C(=O)c1ccccc1

>  <z-score>
-1.4 (inactive)

$$$$
>  <compound>
COc1ccc(C(=O)Nc2cccc(CN3C(=O)[C@]4(O[C@H](CCO)[C@@H]([Si](C)(C)c5ccc(OC)cc5)[C@@H]4C)c4ccccc43)c2)cc1

>  <z-score>
1.85 (inactive)

$$$$
